Source of measurements: patent US20200079758A1

# TARGET_OR_SYSTEM: recombinant human AKR1C3 (Homo sapiens)
# Construct: GST (cleaved yes)
# Sequence (P42330 whole entry): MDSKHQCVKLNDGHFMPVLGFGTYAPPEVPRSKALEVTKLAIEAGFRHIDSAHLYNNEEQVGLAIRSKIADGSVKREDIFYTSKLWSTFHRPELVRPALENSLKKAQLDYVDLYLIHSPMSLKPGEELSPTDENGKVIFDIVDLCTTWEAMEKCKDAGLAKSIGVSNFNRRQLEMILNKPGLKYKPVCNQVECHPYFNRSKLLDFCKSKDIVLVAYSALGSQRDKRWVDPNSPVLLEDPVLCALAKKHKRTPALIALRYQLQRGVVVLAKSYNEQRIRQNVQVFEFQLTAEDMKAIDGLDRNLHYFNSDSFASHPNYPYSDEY
# EXPERIMENT_SUMMARY: AKR1C3-inhibitory activity assay (generation of Coumberol from Coumberone)
# MEASUREMENT_SETUP: Coumberone 0.3 μM, NADPH 10 μM, 22° C., typically 90 min, average or median values
pIC50: −log10 of the molar value.
MEASURED_PROPERTY: pIC50

Record excerpt, results attached:
QUERY_SMILES: C[C@@H]1CN(S(=O)(=O)c2cccc(C(F)(F)F)c2)C[C@H](C)N1C(=O)c1c[nH]nn1
TARGET_OR_SYSTEM: recombinant human AKR1C3 (Homo sapiens)
pIC50: 8.00
--
QUERY_SMILES: CC1(C)CN(C(=O)c2cnn[nH]2)CCN1S(=O)(=O)c1ccc(Br)cc1
TARGET_OR_SYSTEM: recombinant human AKR1C3 (Homo sapiens)
pIC50: 8.40

[I] CC1(C)CN(C(=O)c2c[nH]nn2)CCN1S(=O)(=O)c1cccc(Cl)c1F
[II] Cc1c(Cl)cccc1S(=O)(=O)N1C[C@H](C)N(C(=O)c2cnn[nH]2)C[C@H]1C
Asked: // max by pIC50 over [ I , II ] API: response body contains the label of the selected item.
Given back: II
